// data source = patent US20260234242A1

# system.name: T1, human CDH6 on tumor cells (OVCAR3 cells, PA-1 cells) (human, UniProt P55285 54-790)
# T1 sequence: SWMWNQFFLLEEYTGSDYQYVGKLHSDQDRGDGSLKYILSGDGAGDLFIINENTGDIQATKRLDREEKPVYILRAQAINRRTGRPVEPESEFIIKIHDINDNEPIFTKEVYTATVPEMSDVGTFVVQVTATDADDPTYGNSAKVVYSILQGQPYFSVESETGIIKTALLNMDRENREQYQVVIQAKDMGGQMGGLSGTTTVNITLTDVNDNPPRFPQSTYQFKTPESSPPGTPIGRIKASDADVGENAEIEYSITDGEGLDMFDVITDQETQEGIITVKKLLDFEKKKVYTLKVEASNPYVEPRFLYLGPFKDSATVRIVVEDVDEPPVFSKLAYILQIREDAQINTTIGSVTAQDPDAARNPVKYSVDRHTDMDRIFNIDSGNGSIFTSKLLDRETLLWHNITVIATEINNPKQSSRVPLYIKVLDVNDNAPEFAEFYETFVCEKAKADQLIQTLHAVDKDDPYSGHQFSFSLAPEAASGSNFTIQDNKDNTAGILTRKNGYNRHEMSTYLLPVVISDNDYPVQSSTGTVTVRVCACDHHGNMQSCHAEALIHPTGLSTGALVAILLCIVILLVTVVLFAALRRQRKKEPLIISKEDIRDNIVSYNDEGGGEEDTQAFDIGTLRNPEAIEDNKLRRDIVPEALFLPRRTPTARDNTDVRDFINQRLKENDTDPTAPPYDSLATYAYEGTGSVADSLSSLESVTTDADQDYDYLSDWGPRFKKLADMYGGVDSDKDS
# assay: FACS, OVCAR3 cells

binder	Max MFI (MFI)
CHI-CDH6-1 (antibody, human IgG1, kappa, V domains shown, also called CHI-hCDH6-1; CH1-CDH6-1) VH: QVQLQQPGAELVRPGSSVKLSCKASGYTFTNYWMHWVKQRPIEGLEWIGDIDPSHSETHYTQKFKDKATLTVDKSSSTAYMQLSSLTSEDSAVYYCARGDLGRFDYWGQGTTLTVSS VL: DIVLTQSPASLAVSLGQRATISCRASESVSIHGTHLMHWYQQKSGQPPKLLIYAASNLESGVPARFSGSGSETDFTFNIHPVEEEDAATYFCQQSFEDPWTFGGGTKLEIKR	14900
hCDH6-1-H1L3 (antibody, V domains shown, Humanized) VH: EVQLVQSGAEVKKPGSSVKVSCKASGYTFSNYWMHWVRQAPGQGLEWMGDIDPSHSETHYTQKFKDRVTITVDKSTSTAYMELSSLRSEDTAVYYCARGDLGRFDYWGQGTTVTVSS VL: DIQMTQSPSSLSASVGDRVTITCRASESVSIHGTHLMHWYQQKPGKPPKLLIYAASNLESGVPSRFSGSGSETDFTFTISSLQPEDIATYYCQQSFEDPWTFGGGTKVEIK	14500
hCDH6-1-H4L1 (antibody, V domains shown, Humanized) VH: EVQLVQSGAEVKKPGSSVKVSCKASGYTFTNYWMHWVRQRPGQGLEWMGDIDPSHSETHYTQKFKDRVTITVDKSTSTAYMELSSLRSEDTAVYYCARGDLGRFDYWGQGTTVTVSS VL: DIVMTQSPDSLAVSLGERATINCRASESVSIHGTHLMHWYQQKPGQPPKLLIYAASNLESGVPDRFSGSGSETDFTLTISSLQAEDVAVYYCQQSFEDPWTFGGGTKVEIK	14000
